Catalogue of variants with associated self-cleavage kobs at 640 uM GlcN6P
B1: glmS ribozyme (parent)
chain: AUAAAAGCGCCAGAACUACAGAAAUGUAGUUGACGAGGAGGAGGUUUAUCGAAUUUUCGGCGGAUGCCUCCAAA

# Variants of: B1
# Assay procedure: self-cleavage kobs at 640 uM GlcN6P; higher = faster cleavage; RNA array
# Settings: with glucosamine-6-phosphate
Variants at the floor of the assay were thinned out.

{"Mutant id": "A6U A36G A64U", "self-cleavage kobs at 640 uM GlcN6P": "< 1e-05 s⁻¹"}
{"Mutant id": "G32C G44A A48U", "self-cleavage kobs at 640 uM GlcN6P": "< 1e-05 s⁻¹"}
{"Mutant id": "U46A U49C", "self-cleavage kobs at 640 uM GlcN6P": "< 1e-05 s⁻¹"}
{"Mutant id": "A15U G29C", "self-cleavage kobs at 640 uM GlcN6P": "0.000432 s⁻¹"}
{"Mutant id": "G9U G35C A42U U45A C70A", "self-cleavage kobs at 640 uM GlcN6P": "< 1e-05 s⁻¹"}
{"Mutant id": "C10U G35C G62C", "self-cleavage kobs at 640 uM GlcN6P": "< 1e-05 s⁻¹"}
{"Mutant id": "U54A G59U C68U C70G", "self-cleavage kobs at 640 uM GlcN6P": "< 1e-05 s⁻¹"}
{"Mutant id": "G13A A14C U30G", "self-cleavage kobs at 640 uM GlcN6P": "4.76e-05 s⁻¹"}
{"Mutant id": "A15U G38C G43C G51U", "self-cleavage kobs at 640 uM GlcN6P": "< 1e-05 s⁻¹"}
{"Mutant id": "C50U C58U", "self-cleavage kobs at 640 uM GlcN6P": "< 1e-05 s⁻¹"}
{"Mutant id": "A15C U65G", "self-cleavage kobs at 640 uM GlcN6P": "0.000252 s⁻¹"}
{"Mutant id": "A12G G32U G44C G60A C70G", "self-cleavage kobs at 640 uM GlcN6P": "< 1e-05 s⁻¹"}
{"Mutant id": "A42G U65A", "self-cleavage kobs at 640 uM GlcN6P": "0.00121 s⁻¹"}
{"Mutant id": "G29A G32U G40U G44U", "self-cleavage kobs at 640 uM GlcN6P": "< 1e-05 s⁻¹"}
{"Mutant id": "G38U G43U U65C C68G C71G", "self-cleavage kobs at 640 uM GlcN6P": "< 1e-05 s⁻¹"}
{"Mutant id": "C16A C71G", "self-cleavage kobs at 640 uM GlcN6P": "7.21e-05 s⁻¹"}
{"Mutant id": "G35U G37C G60U", "self-cleavage kobs at 640 uM GlcN6P": "< 1e-05 s⁻¹"}
{"Mutant id": "A14G C16U U45C", "self-cleavage kobs at 640 uM GlcN6P": "0.000986 s⁻¹"}
{"Mutant id": "A33G C34U G40A A42U C68A", "self-cleavage kobs at 640 uM GlcN6P": "< 1e-05 s⁻¹"}
